ASSAY_TEXT: amyloid nucleation score (Sup35N fusion, yeast selection) (log enrichment); library NNK3; higher = more nucleation; inactive = no reads after selection;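 also: zero at mode of non-aggregating sequences after 7 days selection at 30°C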
PROPERTY: amyloid nucleation score

Before answering, review these 4 worked examples.
SUBSTANCE: SRSVMIPVNS
RESULT: -0.038

SUBSTANCE: RRYYLRV
RESULT: inactive

SUBSTANCE: AGGCDRYVHPRFLDKRSSWS
RESULT: inactive

SUBSTANCE: WRAADDQTWGLVRCLSI
RESULT: 0.57

(Q) Need amyloid nucleation score, item "WGMSRLFVYFPVILLMISLT"
(A) inactive

(Q) Need amyloid nucleation score, item "QYVYLCRYLNMRPACYDMVV"
(A) -0.329

(Q) Need amyloid nucleation score, item "MRYINEKCVT"
(A) inactive

(Q) Need amyloid nucleation score, item "AVYSWCARTYSILSTLRGEF"
(A) inactive

(Q) Need amyloid nucleation score, item "GYYPLYVTFNSMCEFNIQLQ"
(A) 3.11

(Q) Need amyloid nucleation score, item "LTFVHNWFDPLCLHRNSAMN"
(A) inactive

(Q) Need amyloid nucleation score, item "DGSIGRGVDRRLTKSSQPAL"
(A) inactive

(Q) Need amyloid nucleation score, item "PWRLIAALACVYTWPLGLRG"
(A) inactive

(Q) Need amyloid nucleation score, item "HQVKVIVCCVTYVVQYVVMM"
(A) inactive

(Q) Need amyloid nucleation score, item "SLSIVETIGVCL"
(A) inactive

(Q) Need amyloid nucleation score, item "PMMVWFSNFLYVASMGPDSF"
(A) inactive

(Q) Need amyloid nucleation score, item "VYACWIMSNVPSRAVEILYS"
(A) inactive

----------
ASSAY_TEXT: amyloid nucleation score (Sup35N fusion, yeast selection) (log enrichment); library NNK3; higher = more nucleation; inactive = no reads after selection
PROPERTY: amyloid nucleation score

Before answering, review these 10 worked examples.
SUBSTANCE: NCCQFPVDAS
RESULT: inactive

SUBSTANCE: VFLQRCVDYMCDRNCFSVFA
RESULT: inactive

SUBSTANCE: LGWGHACMKFVDHCVRSSRS
RESULT: inactive

SUBSTANCE: IPVAIMLS
RESULT: inactive

SUBSTANCE: VGSGCNISTKTACFYMKLIA
RESULT: inactive

SUBSTANCE: YCAFLTNPHVLDFSMNCCKL
RESULT: 2.29

SUBSTANCE: KSKHTVMRWSLYSRRIMLVF
RESULT: inactive

SUBSTANCE: VLLVHGKEWTEMLAHTLRCG
RESULT: inactive

SUBSTANCE: SAIFDGEQERSRDMLL
RESULT: inactive

SUBSTANCE: SSYSWMGVFIYLDRIINYTH
RESULT: -0.339

(Q) Need amyloid nucleation score, item "LYTNLTTVDLHCVKNA"
(A) inactive

(Q) Need amyloid nucleation score, item "MFLQSGDFPM"
(A) inactive

(Q) Need amyloid nucleation score, item "CAYPVKKCMPYQYMKKFVLV"
(A) inactive

(Q) Need amyloid nucleation score, item "GPARTRWILPRVLGCTYRAA"
(A) inactive

(Q) Need amyloid nucleation score, item "REYPYDMYSHLSLFDARHPG"
(A) inactive

(Q) Need amyloid nucleation score, item "RDVFINPTTGQALNVWACCR"
(A) inactive

(Q) Need amyloid nucleation score, item "QHKKKIAF"
(A) inactive

(Q) Need amyloid nucleation score, item "RCGKPVGRTYGLGISIEKAR"
(A) inactive
